Data origin: the supplement of paper PMC12645437

- assayed.system: T1, CRBN, Q96SW2;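 also: pooled lentiviral library of zinc finger degron-EGFP fusions in mCherry-positive Jurkat cells, FACS-sorted after compound exposure, with degron abundance counted by next-generation sequencing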
- T1 chain: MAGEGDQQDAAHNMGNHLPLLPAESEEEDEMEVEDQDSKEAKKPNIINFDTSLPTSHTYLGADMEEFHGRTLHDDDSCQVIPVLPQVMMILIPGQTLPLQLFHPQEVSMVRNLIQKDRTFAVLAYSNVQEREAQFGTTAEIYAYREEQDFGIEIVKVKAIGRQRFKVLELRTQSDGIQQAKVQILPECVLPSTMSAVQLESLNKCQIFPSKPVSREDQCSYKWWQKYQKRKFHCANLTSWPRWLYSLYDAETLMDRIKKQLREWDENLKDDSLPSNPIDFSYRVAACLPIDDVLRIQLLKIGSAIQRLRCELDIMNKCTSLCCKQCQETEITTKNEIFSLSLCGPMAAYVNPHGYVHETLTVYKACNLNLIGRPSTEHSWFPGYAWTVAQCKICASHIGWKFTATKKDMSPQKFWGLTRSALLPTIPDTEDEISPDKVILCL
- protocol: log2 fold change of degron read counts, EGFP-low vs EGFP+ sorted cells (limma voom), compound-induced degradation; higher = more compound-induced degradation of the degron-EGFP fusion; degrons are variants of IKZF1/3 zinc finger 2; compound dose not given here
- condition.parameters: Jurkat; 18 h; compound: compound 33 (diphenyl IMiD analogue)
Whole data set: some 8,300 sequences, median “log2 fold change of degron read counts, EGFP-low vs EGFP+ sorted cells (limma voom), compound-induced degradation” near -1.1, cut for the highest 2% near 3.2. This is one part of a sample in which the highest values are shown more often than they occur.
endpoint: log2 fold change of degron read counts
Give the value as a plain number.

Field request: log2 fold change of degron read counts | item: FWCPICGRHFTQKGNLLRHIKL [46F_47W_49P_50I_52G_53R_54H_55F_67L_, Q9UKT9]
-0.0382

Another sequence to look at: LCCEICGFECTQKGNLLRHIKL [46L_47C_49E_50I_52G_53F_54E_55C_67L_, Q9UKT9]
-0.566

Another sequence to look at: FDCDVCGADFTQKGNLLRHIKL [46F_47D_49D_50V_52G_53A_54D_55F_67L_, Q9UKT9]
-2.88

Another sequence to look at: FSCNQCGRDFTQKGNLLRHIKL [46F_47S_49N_50Q_52G_53R_54D_55F_67L_, Q9UKT9]
-2.59
